TGI overview
test system: M14 melanoma; experiment: NCI tumour cell line growth inhibition, 48 h

{"columns": ["compound", "TGI"],
 "data": [
  ["Nc1ncnc2c1ncn2C1CCC(COS(N)(=O)=O)C1 (configuration not stated)", "> 100 µM"],
  ["O=[N+]([O-])c1ccc(S(=O)Cc2ccccc2)c([N+](=O)[O-])c1 (configuration not stated)", "4.84 µM"],
  ["O=C1C=CC=CC2CC=C[C@@H](O)C12 (some centres not stated)", "50.7 µM"],
  ["O=C1C=CC(=O)C(CNc2ccc(C(=O)OC34CC5CC(CC(C5)C3)C4)cc2)=C1", "31.1 µM"],
  ["CCC(=O)O[C@H]1CC[C@H]2[C@@H]3CC[C@H]4CC(=O)[C@H](C)C[C@]4(C)[C@H]3CC[C@]12C", "> 100 µM"],
  ["CCCNCCCC(NC(C)=O)C(=O)NCc1ccccc1 (configuration not stated)", "> 100 µM"],
  ["C(=C\\c1cccc(/C=C/c2ccccn2)n1)/c1ccccn1", "> 100 µM"],
  ["Cc1cccc2c1[nH]c1[nH]c(=O)[nH]c(=O)c12", "> 100 µM"],
  ["CC(=O)NNc1nc(C)c(C(=O)NNC(=O)C(=O)Nc2c(C)cccc2C)s1", "> 100 µM"],
  ["CCN(CC)CCNc1ccc([N+](=O)[O-])c2sc3ccccc3c(=O)c12", "2.85 µM"],
  ["O=c1[nH]c(=O)n([C@@H]2C[C@H](CO)[C@H](O)C2)cc1/C=C/Br", "> 100 µM"],
  ["CC12N=NN(c3ccc([N+](=O)[O-])cc3)C1(O)c1ccccc1C2=O (configuration not stated)", "> 100 µM"],
  ["c1ccc(CCN2CCc3[nH]c4ccccc4c3C2)cc1", "34 µM"],
  ["Cc1ccncc1.F[B-](F)(F)F.[Pt+2].c1ccc(-c2cccc(-c3ccccn3)n2)nc1", "13.5 µM"],
  ["CCOC(=O)C1=C(c2ccccc2)N(C)c2ccccc2S1", "> 100 µM"],
  ["O=[N+]([O-])c1ccc2nc(-c3ccccn3)c(-c3ccccn3)nc2c1", "> 100 µM"],
  ["O=C(O)[C@@H]1[C@H](C(=O)O)[C@H](C(=O)O)C[C@@H]1C(=O)O", "> 100 µM"],
  ["O=C(c1ccc2ccccc2c1)c1c(C(F)(F)F)n([O-])c2cc(F)c(F)cc2[n+]1=O", "7.11 µM"],
  ["CC1OC(OCC2OC(Oc3c(-c4ccc(O)cc4)oc4cc(O)cc(O)c4c3=O)C(OC3OC(C)C(O)C(O)C3O)C(O)C2O)C(O)C(O)C1O (configuration not stated)", "> 100 µM"],
  ["COc1ccc(-c2cc(=O)c3c(C)cc(C)nc3[nH]2)cc1", "> 100 µM"],
  ["CN(C)/N=C/c1cn(C)c(=O)n(C)c1=O", "> 100 µM"],
  ["Cc1nc2c3c(ncn2n1)Oc1c(c(-c2ccccc2)nn1-c1ccccc1)C3c1ccc(Cl)cc1 (configuration not stated)", "> 100 µM"]
]}
